Target: DNA (cytosine-5)-methyltransferase 1 (Homo sapiens)
Experiment: human DNMT1 methyltransferase inhibitors, primary screen, biochemical, molecular beacon, fluorescence, HinP1I cleavage, uHTS (AID 588458)
Settings: at 10 µM
Out of some 360,000 compounds screened, about 3,000 (0.83%) were called active. No stated cut-off is given here; in the data, active means inhibition above about 50%; inactive means the rest. The sample as a whole holds a higher share of actives than the screen did.
Please state which outcome applies, choosing from true for active, false for inactive

Exercise: Which outcome did this test record for the compound CC(C)n1c(=O)c(C=Nc2ccc(Br)cc2)c(O)n(Cc2ccco2)c1=O ?
Key: false

Exercise: Next compound: CCOC(=O)C(O)(c1ccc(N=Cc2ccccc2O)c(C)c1)C(F)(F)F (stereo not given)
Key: false

Exercise: Field entry: O=C1NC(=O)N(Cc2ccco2)C(=O)/C1=C\c1cccn1CCOc1ccccc1
Key: true

Exercise: Request: Cc1ccnc(-n2c(C)cc(/C=C3\C(=O)NC(=S)N(C)C3=O)c2C)c1
Key: false

Exercise: Please give the result for Cc1c(C(=O)O)cccc1-n1c(C)cc(/C=C2\C(=O)NC(=O)N(c3ccc4c(c3)OCO4)C2=O)c1C too.
Key: true

Exercise: Note, next up: COC(=O)C1=C(c2ccc(OCc3ccccc3)cc2)C[C@@H]2CC[C@H]1N2C(=O)NCc1ccc(Cl)cc1
Key: false

Exercise: Item: COc1ccc(N2C(=O)/C(=C/c3ccco3)C(=O)NC2=S)cc1
Key: true

Exercise: Same question for Fc1ccc(C2N3CCCN23)cc1 (stereo not given) please.
Key: false

Exercise: What about O=C1C2(Cl)C3(Cl)C4(Cl)C(Cl)(Cl)C5(Cl)C3(Cl)C1(Cl)C5(Cl)C24Cl (stereo not given) ?
Key: false

Exercise: Now consider O=P(OC1=CCCCC1)(c1ccccc1)c1ccccc1 and answer again.
Key: false

Exercise: Same thing, different compound: O=C1NC(=O)N(Cc2ccco2)C(=O)/C1=C\c1ccc(-c2ccc(F)cc2)o1
Key: true

Exercise: # repeat for COC(=O)C1=C(c2c(C)noc2C)C[C@@H]2CC[C@H]1N2C(=O)NCc1ccc2c(c1)OCO2
Key: false

Exercise: Then CC1CNCCN1c1ccc(Cl)cc1 (stereo not given) ?
Key: false

Exercise: Subsequent entry: Cc1cc(C=C2C(=O)NC(=O)NC2=O)c(C)n1-c1ccncc1
Key: false

Exercise: Please answer likewise for Cc1ccc(-n2c(C)cc(/C=C3\C(=O)NC(=O)N(C)C3=O)c2C)cc1C
Key: false
